The origin of these recorded values is patent US20260027220A1.

Target: T1, human EphA2 ectodomain (human, UniProt P29317 24-537)
T1 construct: Soluble ectodomain used as the SPR analyte
T1 sequence (P29317 24-537 limits assumed): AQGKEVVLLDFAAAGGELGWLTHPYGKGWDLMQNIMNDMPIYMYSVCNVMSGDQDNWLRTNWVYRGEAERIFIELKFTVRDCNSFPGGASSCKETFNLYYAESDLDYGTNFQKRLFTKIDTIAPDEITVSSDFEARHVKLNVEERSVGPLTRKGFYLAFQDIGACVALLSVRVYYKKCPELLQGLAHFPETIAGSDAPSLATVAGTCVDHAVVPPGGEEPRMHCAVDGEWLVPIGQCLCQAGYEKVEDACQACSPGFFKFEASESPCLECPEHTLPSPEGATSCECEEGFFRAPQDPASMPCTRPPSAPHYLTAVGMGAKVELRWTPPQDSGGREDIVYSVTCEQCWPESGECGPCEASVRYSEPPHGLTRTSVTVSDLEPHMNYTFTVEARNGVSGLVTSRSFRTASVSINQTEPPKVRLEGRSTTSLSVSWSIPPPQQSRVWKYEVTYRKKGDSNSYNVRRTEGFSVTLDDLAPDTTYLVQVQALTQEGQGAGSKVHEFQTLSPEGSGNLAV
Test: SPR (Biacore 8k), Fab-capture, 37C, 1:1 model;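 also: Anti-EphA2 IgG captured via immobilized anti-Fab, soluble EphA2 ectodomain as analyte at six twofold dilutions from 50 nM, HBS-EP+ pH 7.6 running buffer, double reference subtraction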
PROPERTY NAME: koff

>>> measurement("anti-EphA2 E152C S375C 1C1 (LC N92Q) hIgG1 (WT Heavy Chain) (antibody, V domains shown, also called 1C1 N92Q IgG; DE-54-AX20) VH: EVQLLESGGGLVQPGGSLRLSCAASGFTFSHYMMAWVRQAPGKGLEWVSRIGPSGGPTHYADSVKGRFTISRDNSKNTLYLQMNSLRAEDTAVYYCAGYDSGYDYVAVAGPAEYFQHWGQGTLVTVSS VL: DIQMTQSPSSLSASVGDRVTITCRASQSISTWLAWYQQKPGKAPKLLIYKASNLHTGVPSRFSGSGSGTEFSLTISGLQPDDFATYYCQQYQSYSRTFGQGTKVEIKR")
"0.0531 s⁻¹"
>>> measurement("anti-EphA2 E152C S375C 1C1 (LC S72T) hIgG1 (WT Heavy Chain) (antibody, V domains shown, also called 1C1 S72T IgG; FE-76-NO13) VH: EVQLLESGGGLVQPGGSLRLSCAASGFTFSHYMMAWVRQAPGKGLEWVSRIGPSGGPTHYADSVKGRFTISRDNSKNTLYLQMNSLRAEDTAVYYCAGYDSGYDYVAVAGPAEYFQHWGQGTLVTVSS VL: DIQMTQSPSSLSASVGDRVTITCRASQSISTWLAWYQQKPGKAPKLLIYKASNLHTGVPSRFSGSGSGTEFTLTISGLQPDDFATYYCQQYNSYSRTFGQGTKVEIKR")
"0.0518 s⁻¹"
>>> measurement("anti-EphA2 E152C S375C 1C1 (LC S10T_S72T_G77S) hIgG1 (WT Heavy Chain) (antibody, V domains shown, also called 3x germ) VH: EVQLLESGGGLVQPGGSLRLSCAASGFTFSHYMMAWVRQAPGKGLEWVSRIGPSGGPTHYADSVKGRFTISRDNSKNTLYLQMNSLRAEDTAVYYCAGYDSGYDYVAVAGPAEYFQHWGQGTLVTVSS VL: DIQMTQSPSTLSASVGDRVTITCRASQSISTWLAWYQQKPGKAPKLLIYKASNLHTGVPSRFSGSGSGTEFTLTISSLQPDDFATYYCQQYNSYSRTFGQGTKVEIKR")
"0.0996 s⁻¹"
>>> measurement("anti-EphA2 E152C S375C 1C1 (LC S93Q) hIgG1 (WT Heavy Chain) (antibody, V domains shown, also called DA-62-QP06) VH: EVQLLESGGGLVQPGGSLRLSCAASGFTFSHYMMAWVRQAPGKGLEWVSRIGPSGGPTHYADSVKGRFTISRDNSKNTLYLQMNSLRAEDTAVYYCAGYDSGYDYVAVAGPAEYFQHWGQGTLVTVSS VL: DIQMTQSPSSLSASVGDRVTITCRASQSISTWLAWYQQKPGKAPKLLIYKASNLHTGVPSRFSGSGSGTEFSLTISGLQPDDFATYYCQQYNQYSRTFGQGTKVEIKR")
"0.0635 s⁻¹"
>>> measurement("anti-EphA2 E152C S375C 1C1 (LC S93A) hIgG1 (WT Heavy Chain) (antibody, V domains shown, also called HD-58-MP05) VH: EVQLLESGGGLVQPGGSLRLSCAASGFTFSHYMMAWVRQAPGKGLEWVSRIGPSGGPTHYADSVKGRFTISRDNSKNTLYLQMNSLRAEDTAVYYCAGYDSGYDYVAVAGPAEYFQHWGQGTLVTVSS VL: DIQMTQSPSSLSASVGDRVTITCRASQSISTWLAWYQQKPGKAPKLLIYKASNLHTGVPSRFSGSGSGTEFSLTISGLQPDDFATYYCQQYNAYSRTFGQGTKVEIKR")
"0.131 s⁻¹"
>>> measurement("anti-EphA2 E152C S375C 1C1 (LC S93V) hIgG1 (WT Heavy Chain) (antibody, V domains shown, also called PA-62-QD06) VH: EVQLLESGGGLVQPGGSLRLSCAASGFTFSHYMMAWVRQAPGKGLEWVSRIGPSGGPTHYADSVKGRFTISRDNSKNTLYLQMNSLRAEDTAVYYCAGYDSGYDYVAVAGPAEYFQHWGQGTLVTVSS VL: DIQMTQSPSSLSASVGDRVTITCRASQSISTWLAWYQQKPGKAPKLLIYKASNLHTGVPSRFSGSGSGTEFSLTISGLQPDDFATYYCQQYNVYSRTFGQGTKVEIKR")
"0.0792 s⁻¹"
